Assay: ATG_EGR_CIS: Attagene CIS-FACTORIAL HepG2 Assay for human Early Growth Response 1 (EGR1) (AID 2282938)
Conditions: HepG2 Attagene CIS-FACTORIAL EGR reporter mRNA; actives raise or lower the signal
The source made the active and inactive calls. The calls were made as follows: active = hit-call score of the fitted dose curve at least 0.9, where 1 is the maximum; inactive = score below 0.9.
Measurement Type: outcome

Field: example entries. Status: answers known.
{"Compound": "CN(C)CCOC(C)(c1ccccc1)c1ccccn1 (configuration not stated)", "outcome": "inactive"}
{"Compound": "COC(=O)Nc1ccc(Cl)c(Cl)c1", "outcome": "inactive"}
{"Compound": "O=P(O)(O)O", "outcome": "inactive"}
{"Compound": "CCOc1ccc(NC(=O)CC(C)O)cc1 (configuration not stated)", "outcome": "inactive"}

Hey, can you go through the list below and give me outcome for every item?
1. CC=Cc1ccc(OC)c(OC)c1
2. CC(C)(CO)[C@@H](O)C(=O)NCCC(=O)O
3. OC[C@H]1O[C@@H](Oc2ccc(O)cc2)[C@H](O)[C@@H](O)[C@@H]1O

OUTPUT:
inactive
inactive
inactive

---

Biological target: Myc proto-oncogene protein (Homo sapiens) (UniProt P01106)
Sequence (P01106 whole entry, looked up): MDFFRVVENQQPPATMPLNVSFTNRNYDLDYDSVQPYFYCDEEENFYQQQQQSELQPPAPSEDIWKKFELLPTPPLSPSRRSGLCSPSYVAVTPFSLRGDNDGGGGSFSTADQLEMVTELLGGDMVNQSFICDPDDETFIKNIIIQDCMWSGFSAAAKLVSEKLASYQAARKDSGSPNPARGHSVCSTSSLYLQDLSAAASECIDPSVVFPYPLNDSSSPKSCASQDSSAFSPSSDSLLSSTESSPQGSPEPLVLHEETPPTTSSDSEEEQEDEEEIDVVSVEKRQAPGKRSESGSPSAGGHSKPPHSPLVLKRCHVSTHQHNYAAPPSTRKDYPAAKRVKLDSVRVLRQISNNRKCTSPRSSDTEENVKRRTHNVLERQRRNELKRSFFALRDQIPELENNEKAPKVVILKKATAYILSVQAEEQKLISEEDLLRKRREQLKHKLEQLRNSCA
Assay: ATG_Myc_CIS: Attagene CIS-FACTORIAL HepG2 Assay for human Myelocytomatosis (Myc) Proto-Oncogene Transcription Factor (AID 2282990)
Conditions: HepG2, Attagene cis-reporter transcription factor activity; actives raise or lower the signal
Procedure: ATG_CIS is a cell-based, multiplexed-readout assay that uses HepG2, a human liver cell line, with measurements taken at 24 hours after chemical dosing in a 24-well plate.ATG_Myc_CIS is one of 52 assay component(s) measured or calculated from the ATG_CIS assay. […] This assay endpoint, ATG_Myc_CIS, was analyzed with bidirectional fitting relative to DMSO as the negative control and baseline of activity. […]
The source made the active and inactive calls. Rule for the calls: active = hit-call score of the fitted dose curve at least 0.9, where 1 is the maximum; inactive = score below 0.9.
Measurement Type: outcome

Field: example entries. Status: answers known.
{"Molecule": "CCC(C)c1cc([N+](=O)[O-])cc([N+](=O)[O-])c1OC(=O)OC(C)C (centres undefined)", "Tested System": "Myc proto-oncogene protein (Homo sapiens) (UniProt P01106)", "outcome": "inactive"}
{"Molecule": "Cc1ccc(OC(=O)c2ccccc2O)cc1", "Tested System": "Myc proto-oncogene protein (Homo sapiens) (UniProt P01106)", "outcome": "inactive"}
{"Molecule": "CC1=C(Br)C(=O)C(Br)=C/C1=C(/c1ccccc1S(=O)(=O)O)c1cc(Br)c(O)c(Br)c1C", "Tested System": "Myc proto-oncogene protein (Homo sapiens) (UniProt P01106)", "outcome": "inactive"}
{"Molecule": "CCCC[O][Al]([O]CCCC)[O]CCCC", "Tested System": "Myc proto-oncogene protein (Homo sapiens) (UniProt P01106)", "outcome": "inactive"}

Hey, can you go through the list below and give me outcome for every item?
1. Cc1ccc2c(c1)C(=O)OC2=O
2. CCOc1ccc(NC(=O)CC(C)O)cc1 (centres undefined)
3. CCOC(=O)C(C#N)=C(c1ccccc1)c1ccccc1

OUTPUT:
inactive
inactive
inactive

Hey, can you go through the list below and give me outcome for every item?
1. CC(C)=CCCC(C)CCOC=O (centres undefined)
2. COCCc1ccc(OCC(O)CNC(C)C)cc1 (centres undefined)

OUTPUT:
1. inactive
2. inactive

---

Target: Retinoic acid receptor alpha (Homo sapiens) (UniProt P10276)
Sequence (P10276 whole entry, looked up): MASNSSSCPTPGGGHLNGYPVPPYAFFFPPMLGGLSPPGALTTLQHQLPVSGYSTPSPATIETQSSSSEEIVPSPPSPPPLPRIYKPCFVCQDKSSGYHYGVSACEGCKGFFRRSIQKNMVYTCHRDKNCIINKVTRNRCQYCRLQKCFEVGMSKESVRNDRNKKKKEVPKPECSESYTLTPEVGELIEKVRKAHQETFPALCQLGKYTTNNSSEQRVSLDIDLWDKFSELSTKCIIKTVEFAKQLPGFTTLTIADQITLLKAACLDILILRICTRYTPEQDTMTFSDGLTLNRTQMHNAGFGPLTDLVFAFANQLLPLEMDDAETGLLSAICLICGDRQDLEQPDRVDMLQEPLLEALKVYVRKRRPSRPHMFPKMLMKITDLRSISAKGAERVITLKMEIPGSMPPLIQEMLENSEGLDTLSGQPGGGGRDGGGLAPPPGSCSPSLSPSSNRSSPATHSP
Experiment: ATG_DR5_RAR_CIS: Attagene CIS-FACTORIAL HepG2 Assay for human Retinoic Acid Receptor Alpha (RARE), DR5 submotif (AID 2282934)
Conditions: HepG2 Attagene cis-factorial RARE DR5 reporter, mRNA; actives raise or lower the signal
The source made the active and inactive calls. Rule for the calls: active = hit-call score of the fitted dose curve at least 0.9, where 1 is the maximum; inactive = score below 0.9.
Pick one: class 1 for active, class 0 for inactive

INPUT: What classification did `COC(=O)C=C(C)CCC=C(C)C` end up with in this test?
OUTPUT: class 0

INPUT: What classification did `O=CCc1ccccc1` end up with in this test?
OUTPUT: class 0

INPUT: What classification did CCC1(C)NC(=O)NC1=O (configuration not stated) end up with in this test?
OUTPUT: class 0

INPUT: What classification did `c1ccc2[nH]cnc2c1` end up with in this test?
OUTPUT: class 0

INPUT: What classification did `CCOc1ccc(N=Nc2ccc(C=Cc3ccc(N=Nc4ccc(OCC)cc4)cc3S(=O)(=O)O)c(S(=O)(=O)O)c2)cc1` end up with in this test?
OUTPUT: class 0

INPUT: What classification did `IC(I)I` end up with in this test?
OUTPUT: class 0

INPUT: What classification did `CC1=C(Br)C(=O)C(Br)=C/C1=C(/c1ccccc1S(=O)(=O)O)c1cc(Br)c(O)c(Br)c1C` end up with in this test?
OUTPUT: class 0

INPUT: What classification did `CCCCCCCCCCCCCCCC(=O)OC/C=C(C)/C=C/C=C(C)/C=C/C1=C(C)CCCC1(C)C` end up with in this test?
OUTPUT: class 0

INPUT: What classification did `CCN(CCN)c1cccc(C)c1` end up with in this test?
OUTPUT: class 0

INPUT: What classification did `CCCCCCCC(=O)OCCCCCC` end up with in this test?
OUTPUT: class 0

INPUT: What classification did `CC(C)c1ccccc1O` end up with in this test?
OUTPUT: class 0

INPUT: What classification did `CC(=O)O[C@@H]1C[C@@H]2CC[C@@]1(C)C2(C)C` end up with in this test?
OUTPUT: class 0

INPUT: What classification did `O=C(CC(=O)c1ccccc1)c1ccccc1` end up with in this test?
OUTPUT: class 1

INPUT: What classification did `CN(c1nccc(=O)[nH]1)C1CCN(c2nc3ccccc3n2Cc2ccc(F)cc2)CC1` end up with in this test?
OUTPUT: class 0

INPUT: What classification did `C=C(C)CNCC` end up with in this test?
OUTPUT: class 0

INPUT: What classification did `CC(=O)OCCCc1ccccc1` end up with in this test?
OUTPUT: class 0

INPUT: What classification did `OCCOCCN1CCN(C2=Nc3ccccc3Sc3ccccc32)CC1` end up with in this test?
OUTPUT: class 0

---

Experiment: CCTE_Simmons_CellTiterGLO_HEK293T: Viability Assessment in CCTE's Assays for Thyroperoxidase (TPO) Inhibition, Simmons Lab (AID 2283665);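 also: cells exposed to compound for 24 h before readout; actives reduce ATP signal below DMSO vehicle meaning cytotoxicity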
Results filed as inconclusive are left out. Calls of active or inactive are those of the source. The calls were made as follows: active = hit-call score of the fitted dose curve at least 0.9, where 1 is the maximum; inconclusive = response in the unintended direction; inactive = score below 0.9.
Measurement Type: AC50

{"Compound": "Oc1ccc2cc(SSc3ccc4cc(O)ccc4c3)ccc2c1", "AC50": "74.3 µM (active)"}
{"Compound": "CCCCC(CC)COC(=O)c1ccc(O)cc1 (stereo not given)", "AC50": "24.7 µM (active)"}
{"Compound": "CCOc1ccc(N=Nc2ccc(C=Cc3ccc(N=Nc4ccc(OCC)cc4)cc3S(=O)(=O)O)c(S(=O)(=O)O)c2)cc1", "AC50": "89.1 µM (active)"}
{"Compound": "Cc1cc(S(=O)(=O)O)ccc1N=Nc1c(O)ccc2ccccc12", "AC50": "24 µM (active)"}

INPUT: Endpoint output: AC50 of `COc1ccccc1N=Nc1c(S(=O)(=O)O)cc2cc(S(=O)(=O)O)cc(NC(C)=O)c2c1O` . Value?
OUTPUT: 12.2 µM (active)

---

Target: human Beta-secretase (BACE), BACE1 (gene 23621) (UniProt P56817)
Sequence (P56817 whole entry, looked up): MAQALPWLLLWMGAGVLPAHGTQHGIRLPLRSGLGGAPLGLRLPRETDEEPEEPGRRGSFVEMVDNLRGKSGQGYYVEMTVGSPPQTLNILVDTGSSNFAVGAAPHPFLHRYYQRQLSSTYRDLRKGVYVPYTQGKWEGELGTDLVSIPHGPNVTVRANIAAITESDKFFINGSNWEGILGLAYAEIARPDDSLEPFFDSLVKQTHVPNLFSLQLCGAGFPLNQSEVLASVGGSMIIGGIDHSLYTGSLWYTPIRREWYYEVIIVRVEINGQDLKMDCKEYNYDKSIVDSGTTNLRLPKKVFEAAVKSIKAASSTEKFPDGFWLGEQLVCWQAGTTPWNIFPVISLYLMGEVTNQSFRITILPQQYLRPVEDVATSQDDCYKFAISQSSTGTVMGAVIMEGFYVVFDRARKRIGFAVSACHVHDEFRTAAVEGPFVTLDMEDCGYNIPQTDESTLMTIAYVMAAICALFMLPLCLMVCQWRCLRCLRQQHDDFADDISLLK
Experiment: NVS_ENZ_hBACE: NovaScreen (NVS) Enzymatic Assay for human Beta-secretase (BACE) (AID 2283140);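 also: hits are inhibitors that reduce fluorescent substrate signal versus DMSO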
Results filed as inconclusive are left out. Activity calls are given as the source filed them. How the source made its calls: active means hit-call score of the fitted dose curve at least 0.9, where 1 is the maximum; inconclusive means response in the unintended direction; inactive means score below 0.9.
Pick one: active, inactive

Take a look at these entries with their results.
{"Smiles Str": "CCCC[O][Al]([O]CCCC)[O]CCCC", "Category Label": "inactive"}
{"Smiles Str": "CC(C)(N=C=O)c1cccc(C(C)(C)N=C=O)c1", "Category Label": "inactive"}
{"Smiles Str": "C=C(C)C(=O)OCC(CC)(COC(=O)C(=C)C)COC(=O)C(=C)C", "Category Label": "active"}
{"Smiles Str": "c1ccc2cc(Nc3ccc(Nc4ccc5ccccc5c4)cc3)ccc2c1", "Category Label": "active"}

INPUT: What classification did `CCOCCOCCOCC` end up with in this test?
OUTPUT: inactive

---

Read-out: Tumor necrosis factor (Homo sapiens) (UniProt P01375)
Sequence (P01375 whole entry, looked up): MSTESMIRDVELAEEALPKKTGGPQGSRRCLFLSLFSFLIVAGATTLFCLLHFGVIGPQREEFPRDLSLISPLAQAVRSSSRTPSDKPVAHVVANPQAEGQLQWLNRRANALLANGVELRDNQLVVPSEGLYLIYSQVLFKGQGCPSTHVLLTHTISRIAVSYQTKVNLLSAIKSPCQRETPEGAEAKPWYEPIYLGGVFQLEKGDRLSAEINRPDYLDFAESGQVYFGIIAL
Assay: BSK_BT_xTNFa: BioMAP Diversity Plus: BT Assay for Tumor necrosis factor alpha (TNF-alpha) Biomarker Activity (AID 2284230)
Conditions: primary human B cells with PBMC
Activity calls are given as the source filed them. Rule for the calls: active = hit-call score of the fitted dose curve at least 0.9, where 1 is the maximum; inactive = score below 0.9.
Pick one: active, inactive

INPUT: What classification did `COc1ccc(OC)c(N=Nc2c(O)ccc3ccccc23)c1` end up with in this test?
OUTPUT: inactive

INPUT: What classification did `c1ccc2cc(Nc3ccc(Nc4ccc5ccccc5c4)cc3)ccc2c1` end up with in this test?
OUTPUT: inactive

INPUT: What classification did `CCCCN(CCCC)C(=O)N(CCCC)CCCC` end up with in this test?
OUTPUT: active

INPUT: What classification did `CC(=O)c1c(C)c([N+](=O)[O-])c(C(C)(C)C)c([N+](=O)[O-])c1C` end up with in this test?
OUTPUT: inactive
